Tested on: SNB-75 CNS
experiment-notes: NCI-60 one-dose screen, 48 h
run-conditions: 10 µM unless noted
The panel holds about 83,000 compounds, 20% with a hit somewhere; the sample as a whole holds those more often. Calls of active or inactive are those of the source. How the source made its calls: active means growth percent below 10; inactive means the rest.
One label from this list, please: class 1 for active, class 0 for inactive

Some solved entries appear below for comparison.
IN: Record request — test call for Cc1cccc(N2CCN(C(=S)c3ccc4c(c3)OCO4)CC2)c1
OUT: class 1

IN: Record request — test call for Cc1cc(N2CCN(C)CC2)nc(NCc2cc(Nc3ccnc4cc(Cl)ccc34)ccc2F)n1
OUT: class 0

IN: Record request — test call for CCOC(=O)c1c(C)nc2ccccc2c1/C=C/c1ccc(OC)cc1
OUT: class 0

IN: Record request — test call for C=C(CO)[C@@H]1CC[C@]2(COC3CCCCO3)CC[C@]3(C)[C@H](CC[C@@H]4[C@@]5(C)C=C(C=O)C(=O)C(C)(C)[C@@H]5CC[C@]43C)[C@@H]12 (stereo not given in full)
OUT: class 1

IN: Record request — test call for CS(=O)(=O)Cc1cnc(C2OCCO2)s1
OUT: class 0

Further cases:
IN: Record request — test call for Nc1ncnc2c1c(-c1ccc(Oc3ccccc3)cc1)nn2CC1SSCC1O (stereo not given)
OUT: class 0

IN: Record request — test call for COc1ccc(-c2cc(-c3ccc(OC)cc3)nc(NCCCNc3ccnc4cc(Cl)ccc34)n2)cc1
OUT: class 0

IN: Record request — test call for CC1CN=C(c2cccc(-c3ccc(-c4ccccc4)o3)c2)N1 (stereo not given)
OUT: class 0

IN: Record request — test call for Cn1cc(/C=C2/C(=O)Nc3ccccc32)c2ccccc21
OUT: class 0

IN: Record request — test call for CC1(C)C2CC=C(/C=N/NC(=O)C3CCC(=O)N3)C1C2 (stereo not given)
OUT: class 0

* * *

Test system: SNB-19 CNS
experiment-notes: NCI-60 one-dose screen, 48 h
run-conditions: 10 µM unless noted
This is part of a sample that, as a whole, favours compounds with a hit. Of some 83,000 tested, about 20% had one in any assay. The source made the active and inactive calls. The calls were made as follows: active = growth percent below 10; inactive = the rest.
One label from this list, please: T = active, F = inactive

IN: Record request — test call for CCCCCCCCn1ccc2cc(NC(=O)Cn3cc(CN4CCC(C)CC4)nn3)ccc21
OUT: T

IN: Record request — test call for C[Se]C(=O)CC1=C2C=C(F)C=CC2/C(=C\c2ccc(S(C)=O)cc2)C1C (stereo not drawn)
OUT: T

Further cases:
IN: Record request — test call for C#CC#CC#CC#CC#CC#CC#CC#CCC1OCC(COC(=O)O[C@@H](C(=O)O[C@H]2C[C@@]3(O)[C@@H](OC(=O)c4ccccc4)[C@@H]4[C@]5(OC(C)=O)CO[C@@H]5C[C@H](O)[C@@]4(C)C(=O)[C@H](OC(C)=O)C(=C2C)C3(C)C)[C@@H](NC(=O)c2ccccc2)c2ccccc2)O1 (stereo partly drawn)
OUT: F

* * *

System: TK-10 renal
experiment-notes: NCI-60 one-dose screen, 48 h (100 = growth as untreated, 0 = no growth, -100 = all killed)
run-conditions: 10 µM unless noted
Compounds without any hit were thinned out: in the full panel of roughly 83,000, 20% have a hit. Activity calls are given as the source filed them. The calls were made as follows: active = growth percent below 10; inactive = the rest.
quantity-measured: growth

O=C(N/N=C/c1ccc(O)cc1O)c1ccc(Nc2ccnc(C(F)(F)F)c2)cc1 has a reported growth of 63.3% (inactive)

CC/C=C1/C(=O)C=C[C@@H]1C/C=C\CCCC(=O)OC has a reported growth of 107% (inactive)

C#Cc1cccc(Oc2ccc(NC(=O)CCl)cc2)c1 has a reported growth of 93% [8.25 µM] (inactive)

O=C(Cn1nnc([N+](=O)[O-])n1)c1ccccc1 has a reported growth of 92% (inactive)

* * *

Tested on: RXF 393 renal
experiment-notes: NCI-60 one-dose screen, 48 h
run-conditions: 10 µM unless noted
This is part of a sample that, as a whole, favours compounds with a hit. Of some 83,000 tested, about 20% had one in any assay. The source made the active and inactive calls. Rule for the calls: active = growth percent below 10; inactive = the rest.
One label from this list, please: 1 (yes) (active), 0 (no) (inactive)

IN: Record request — test call for OC(c1ccccc1)(c1ccccc1)c1ccccc1-c1ccccc1
OUT: 0 (no)

IN: Record request — test call for Cc1cc2oc(=O)cc(CP(=O)(O)O)c2cc1O
OUT: 0 (no)

IN: Record request — test call for FC(F)(F)c1[nH]ncc1-c1nc2c(N3CCCCC3)cc3[nH]ncc3c2c2c1CCCC2
OUT: 1 (yes)

* * *

System: LOX IMVI melanoma
experiment-notes: NCI-60 one-dose screen, 48 h
run-conditions: 10 µM unless noted
About 83,000 compounds went through this panel and 20% of them were active in at least one assay; those are over-represented in the sample as a whole. The source made the active and inactive calls. Rule for the calls: active = growth percent below 10; inactive = the rest.
One label from this list, please: active, inactive

IN: Record request — test call for COC(c1ccc2ccccc2c1)C(C)C(F)F (centres undefined)
OUT: inactive

Next:
IN: Record request — test call for CN(C)c1ccc(C(=NO)c2ccc(N(C)C)cc2)cc1
OUT: inactive

* * *

Test system: UACC-257 melanoma
experiment-notes: NCI-60 one-dose screen, 48 h
run-conditions: 10 µM unless noted
The panel holds about 83,000 compounds, 20% with a hit somewhere; the sample as a whole holds those more often. The source made the active and inactive calls. The calls were made as follows: active = growth percent below 10; inactive = the rest.
One label from this list, please: yes (1) (active), no (0) (inactive)

Some solved entries appear below for comparison.
IN: Record request — test call for Cc1ccc(-c2nc(C#N)c(S(=O)(=O)NCCO)o2)cc1
OUT: no (0)

IN: Record request — test call for N#Cc1c(-c2cccc([N+](=O)[O-])c2)cc(-c2ccc(Nc3nc(Nc4ccc(F)cc4)nc(Nc4ccc(F)cc4)n3)cc2)nc1N
OUT: no (0)

IN: Record request — test call for Cc1c2cc[nH]c(=O)c2c(C)c2c1[nH]c1ccc(OC(=O)c3ccccc3)cc12
OUT: no (0)

IN: Record request — test call for COC(=O)c1c2c(c(C)[n+]([O-])c1C)C(=O)C=CC2=O
OUT: yes (1)

Further cases:
IN: Record request — test call for O=C1CC2C=CCN2C=C1NC(=O)C1CCCCC1 (stereo unspecified)
OUT: no (0)

IN: Record request — test call for O=C(OC[C@@H]1CO1)c1cccc2c(=O)c3ccccc3[nH]c12
OUT: yes (1)

IN: Record request — test call for C[C@@H]1CC[C@@]2(OC1)O[C@H]1C[C@H]3[C@@H]4CC=C5C[C@@H](O[C@@H]6O[C@H](CO)[C@@H](O[C@@H]7O[C@@H](CO)[C@H](O)[C@H]7O)[C@H](O)[C@H]6O[C@@H]6O[C@@H](C)[C@H](O)[C@@H](O)[C@H]6O)CC[C@]5(C)[C@H]4CC[C@]3(C)[C@H]1[C@@H]2C
OUT: yes (1)

IN: Record request — test call for Cn1cc(-c2csc(-c3cn(C)c4ccc(Br)cc34)n2)c2cnccc21
OUT: yes (1)

IN: Record request — test call for CC1(C)CCC(S(=O)(=O)c2ccc3c(c2)/C(=N\O)c2cc(S(=O)(=O)N4CCN(c5ccc(F)cc5O)CC4)ccc2-3)CC1
OUT: yes (1)

IN: Record request — test call for Nc1ncnc2c1c(-c1ccc(Oc3ccccc3)cc1)nn2CC1SSCC1O (stereo unspecified)
OUT: no (0)

IN: Record request — test call for O=C(/C=C/C12c3ccccc3C(c3ccccc31)C1C(=O)NC(=O)C12)c1ccccn1 (stereo unspecified)
OUT: no (0)

IN: Record request — test call for CC(C)CN1CC(C(=O)Nc2ccc3c(c2)-c2ccccc2C3)CC1=O (stereo unspecified)
OUT: no (0)

IN: Record request — test call for CC(C)(C)c1cc(C=Nc2cccc(C(F)(F)F)c2)c(O)c(C(C)(C)C)c1
OUT: no (0)

IN: Record request — test call for COc1cc(Nc2ncccc2NC(=O)c2cn(Cc3cccc(Oc4ccccc4)c3)nn2)cc(OC)c1
OUT: no (0)

IN: Record request — test call for COc1ccc(C2C3=C(COC3=O)N(CCO)c3cc4c(cc32)OCCO4)cc1OC (stereo unspecified)
OUT: no (0)

IN: Record request — test call for COc1ccc2c(O)c(/C=C3\N=Nc4ccccc43)oc2c1C[C@H]1CCNC[C@H]1F
OUT: no (0)

* * *

Tested on: OVCAR-8 ovarian
experiment-notes: NCI-60 one-dose screen, 48 h (100 = growth as untreated, 0 = no growth, -100 = all killed)
run-conditions: 10 µM unless noted
About 83,000 compounds went through this panel and 20% of them were active in at least one assay; those are over-represented in the sample as a whole.
quantity-measured: growth (%)
Expressed in %, but write only the number.

O=S(=O)(c1ccccc1)N1CCCN(c2nc(-c3ccccc3)nc3nc(-c4ccccc4)oc23)CC1 has a reported growth of 104

O=C(Cn1nnc2ccccc21)Nc1ccc(-c2nc3ccccc3s2)cc1 has a reported growth of 98.5

COc1cc2c3c(n(CCCCNCCCn4c5c(c6cc(OC)c(OC)cc6c4=O)C(=O)c4cc6c(cc4-5)OCO6)c(=O)c2cc1OC)-c1cc2c(cc1C3=O)OCO2 has a reported growth of 101

CN1C(=O)/C(=C/c2ccc(C(=O)Nc3ncc(Cc4ccc(F)cc4)s3)cc2)SC1=S has a reported growth of 57.9
